Below, each entry is listed with its recorded GI50.
Test system: ACHN renal
protocol.text: NCI tumour cell line growth inhibition, 48 h

Guide cases for GI50, answers given:
Cc1ccc(C(=O)CN(/C=C/C(=O)C(F)(F)F)c2ccc(S(N)(=O)=O)cc2)cc1 | > 100 µM
CC(=O)/C(C)=N/NC(=O)c1ccccc1O | > 100 µM

Continue with the next compound.
Enquiry: Supply GI50 measured with ACHN renal for "CC(=O)[O-].CCN(CC)c1ccc(C=NCCN=Cc2ccc(N(CC)CC)cc2[O-])c([O-])c1.[Mn+3]" .
Return: > 100 µM

* * *

Test system: IGROV1 ovarian
protocol.text: NCI tumour cell line growth inhibition, 48 h; in the data active means GI50 below about 0.43 µM; inactive means the rest
Please state which outcome applies, choosing from class 1 = active, class 0 = inactive

Example cases with answers are listed next.
COc1cc(-c2ccc3c(c2)NC(=O)/C3=C\c2ccc[nH]2)ccc1O | class 1
COC1=CC(=O)c2nc(-c3cccc(C)n3)[nH]c2C1=O | class 0
CNc1ccc(C(=O)CC(O)CCC(C)C2OC(=O)CC(O)CC(=O)CC(O)CC(O)CC(O)CC(O)CC3(O)CC(O)C(C(=O)OC)C(CC(O[C@@H]4O[C@H](C)[C@@H](O)[C@H](N)[C@@H]4O)/C=C/C=C/C=C/C=C/C=C/C=C/C=C/C2C)O3)cc1 (some centres undefined) | class 0

Enquiry: Just curious, what result did "CC(=O)/C(C)=N/NC(=O)c1ccccc1O" get here?
Return: class 0

Enquiry: State the result this test recorded for "COc1ccc(Nc2c3ccccc3nc3occc23)cc1" .
Return: class 0

Enquiry: For "Clc1ccc(C2=Nn3c(COc4ccccc4Cl)nnc3SC2)c(Cl)c1" , what call appears in the results of this test?
Return: class 0

Enquiry: Recorded call for "COc1cc(/C=C/c2cc(/C=C/c3ccc(O)c(OC)c3)n(C(=O)Nc3ccc(F)c(Cl)c3)n2)ccc1O" ?
Return: class 0

Enquiry: GET /call?item= "COc1ccc(Cn2cc3c(c2-c2ccccc2)CC(C)(C)c2cnoc2-3)cc1" returns the recorded outcome of this test.
Return: class 0

Enquiry: # fetch the recorded call for "COc1cc2ncnc(Nc3ccc(C)c(O)c3)c2cc1OC" here
Return: class 0
